The values you see were collected from patent US20030148956A1.

CRF1R EC50 listing for selected binders.
target: corticotropin releasing factor 1 receptor; test: cell-based or functional assay
State the answer as a number, implicitly in nM.

What CRF1R EC50 value was documented for this binder, ZGPPISIDLPLELLRKMIEIEKQEKEKQQAANNALLLDTI (C-terminal amide) [SEQ ID NO 235] ?
806

What CRF1R EC50 value was documented for this binder, ZGPPISIDLPQWLLRKMIEIEKQEKEKQQAANNRLLLDTI (C-terminal amide) [SEQ ID NO 213] ?
1000

What CRF1R EC50 value was documented for this binder, ZGPPISIDLPFQLLREVIEIEKQEKEKQQAANNALLLATI (C-terminal amide) [SEQ ID NO 359] ?
230

What CRF1R EC50 value was documented for this binder, ZGPPISIDLPTALLRKMIEIEKQEKEKQQAANNRLLLDTI (not fully specified; C-terminal amide) [SEQ ID NO 301] ?
690

What CRF1R EC50 value was documented for this binder, ZGPPISIDVPTYLLRKMIEIEKQEKEKQQAANNRLLLDTI (C-terminal amide) [SEQ ID NO 253] ?
1000

Then there is this binder:
What CRF1R EC50 value was documented for this binder, ZGPPISIDLPFQLLRKVIEIEKQEKEKQQAANNARLLARI (C-terminal amide) [SEQ ID NO 279] ?
1000
